Measured values drawn from patent US12104201B2 for this set.

# ASSAY_TARGET: CTR107 WT (C. tepidium Gyrl-like protein, wild type, SEQ ID NO:4) (Chlorobaculum tepidum, UniProt Q8KFZ1)
# Construct: begins […]
# Sequence (Q8KFZ1 entry or part of it): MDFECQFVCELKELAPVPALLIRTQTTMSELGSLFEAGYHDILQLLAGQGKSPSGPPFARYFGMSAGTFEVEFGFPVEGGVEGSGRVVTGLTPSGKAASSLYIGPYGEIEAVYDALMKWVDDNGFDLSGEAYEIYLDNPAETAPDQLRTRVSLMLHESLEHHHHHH
# ASSAY_OVERVIEW: biochemical
# Assay type: binding
# CONDITION_NOTES: Daunorubicin; nonlinear regression, Hill equation; read-out: dissociation constant
pKd: −log10 of the molar value.

CPD_SMILES | pKd
COc1cccc2c1C(=O)c1c(O)c3c(c(O)c1C2=O)C[C@@](O)(C(C)=O)C[C@@H]3O[C@H]1C[C@H](N)[C@H](O)[C@H](C)O1 | 5.40
